Biological target: TRPV2 (Homo sapiens, UniProt Q9Y5S1)
Construct: host or cells: HEK TRex293
Sequence (Q9Y5S1 1-764): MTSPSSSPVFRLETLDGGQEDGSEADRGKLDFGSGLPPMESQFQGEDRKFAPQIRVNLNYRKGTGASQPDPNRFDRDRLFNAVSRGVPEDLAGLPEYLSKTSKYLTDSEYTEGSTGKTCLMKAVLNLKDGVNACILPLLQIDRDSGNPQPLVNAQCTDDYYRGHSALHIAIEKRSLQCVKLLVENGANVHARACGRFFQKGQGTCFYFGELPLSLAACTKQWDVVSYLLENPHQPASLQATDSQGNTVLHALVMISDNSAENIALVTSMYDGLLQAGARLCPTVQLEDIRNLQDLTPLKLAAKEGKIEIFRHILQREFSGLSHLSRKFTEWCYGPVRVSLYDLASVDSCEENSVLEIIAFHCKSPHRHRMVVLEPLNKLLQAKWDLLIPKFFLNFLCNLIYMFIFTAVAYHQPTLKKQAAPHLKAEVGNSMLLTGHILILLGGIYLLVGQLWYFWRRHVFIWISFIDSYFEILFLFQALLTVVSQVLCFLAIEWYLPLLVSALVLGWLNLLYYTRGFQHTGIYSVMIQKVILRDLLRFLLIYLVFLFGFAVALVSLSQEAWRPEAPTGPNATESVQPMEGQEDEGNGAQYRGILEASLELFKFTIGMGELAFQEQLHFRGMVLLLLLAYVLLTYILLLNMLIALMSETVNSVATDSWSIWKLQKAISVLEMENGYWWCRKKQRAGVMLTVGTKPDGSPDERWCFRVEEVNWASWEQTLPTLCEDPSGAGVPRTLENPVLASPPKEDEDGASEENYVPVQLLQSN
Assay: Bulk calcium assay (Fluo-4) in HEK cells overexpressing TRPV2
Format: cell-based
Measurement type: mean maximal Ca^2+ signal RFU achieved 0-180 s (SD), TRPV1

Compound: CCCCCc1cc(O)c(C/C=C(\C)CCC=C(C)C)c(O)c1
Measured target: TRPV2 (Homo sapiens, UniProt Q9Y5S1)
Result: 2.19 (0.62) RFU
--
Compound: CCCCCc1cc(O)c(C/C=C(\C)CCC=C(C)C)c(O)c1C(=O)O
Measured target: TRPV2 (Homo sapiens, UniProt Q9Y5S1)
Result: 0.78 (0.02) RFU
--
Compound: CCCCCc1cc(O)c2c(c1)OC(C)(CCC=C(C)C)C=C2 (stereo not shown)
Measured target: TRPV2 (Homo sapiens, UniProt Q9Y5S1)
Result: 21.66 (1.89) RFU
--
Compound: C=C(C)[C@@H]1CCC(C)=C[C@H]1c1c(O)cc(CCCCC)c(C(=O)O)c1O
Measured target: TRPV2 (Homo sapiens, UniProt Q9Y5S1)
Result: 3.69 (1.2) RFU
--
Compound: C=C(C)[C@@H]1CCC(C)=C[C@H]1c1c(O)cc(CCC)cc1O
Measured target: TRPV2 (Homo sapiens, UniProt Q9Y5S1)
Result: 13.07 (0.03) RFU

Item under review: `CCCCCc1cc(O)c2c(c1)OC(C)(C)c1ccc(C)cc1-2` . Reported mean maximal Ca^2+ signal RFU achieved 0-180 s (SD), TRPV1?
4.03 (0.64) RFU

I am curious: what mean maximal Ca^2+ signal RFU achieved 0-180 s (SD), TRPV1 value has been reported for `C=C(C)[C@@H]1CCC(C)=C[C@H]1c1c(O)cc(CCCCC)cc1O` ?
12.53 (0.28) RFU
